Where these numbers come from: ChEMBL document CHEMBL4038284

system: Leishmania panamensis; assay: Antileshmanial activity against EpiR/GFP fused Leishmania panamensis MHOM/CO/87/UA140 intracellular amastigotes infected in human […] cells after 72 hrs by flow cytometric method; type: functional, cell-based; conditions: MHOM/CO/87/UA140, 72 h
parameter_measured: log10 EC50 (log10 of the value in µg/mL)

[
  {
    "compound": "O=C(/C=C/c1cccc(Nc2ccnc3cc(Cl)ccc23)c1)c1ccccc1",
    "measurement_target": "Leishmania panamensis",
    "log10 EC50": 0.40
  },
  {
    "compound": "CC(=O)N1N=C(c2ccccc2)CC1c1cccc(Nc2ccnc3cc(Cl)ccc23)c1 (centres undefined)",
    "measurement_target": "Leishmania panamensis",
    "log10 EC50": 0.56
  },
  {
    "compound": "Clc1ccc(C2=NN(c3ccccc3)C(c3cccc(Nc4ccnc5cc(Cl)ccc45)c3)C2)cc1 (centres undefined)",
    "measurement_target": "Leishmania panamensis",
    "log10 EC50": 1.07
  },
  {
    "compound": "O=C(/C=C/c1cccc(Nc2ccnc3cc(Cl)ccc23)c1)c1ccc(Br)cc1",
    "measurement_target": "Leishmania panamensis",
    "log10 EC50": -0.06
  },
  {
    "compound": "Clc1cc(Cl)cc(N2N=C(c3ccccc3)CC2c2cccc(Nc3ccnc4cc(Cl)ccc34)c2)c1 (centres undefined)",
    "measurement_target": "Leishmania panamensis",
    "log10 EC50": 1.25
  },
  {
    "compound": "COc1cc(C2=NN(c3cc(Cl)cc(Cl)c3)C(c3cccc(Nc4ccnc5cc(Cl)ccc45)c3)C2)cc(OC)c1OC (centres undefined)",
    "measurement_target": "Leishmania panamensis",
    "log10 EC50": 1.22
  },
  {
    "compound": "COc1cc(C(=O)/C=C/c2cccc(Nc3ccnc4cc(Cl)ccc34)c2)cc(OC)c1OC",
    "measurement_target": "Leishmania panamensis",
    "log10 EC50": 0.77
  },
  {
    "compound": "O=Cc1cccc(Nc2ccnc3cc(Cl)ccc23)c1",
    "measurement_target": "Leishmania panamensis",
    "log10 EC50": -0.02
  },
  {
    "compound": "Cc1ccc(C2=NN(c3cc(Cl)cc(Cl)c3)C(c3cccc(Nc4ccnc5cc(Cl)ccc45)c3)C2)cc1 (centres undefined)",
    "measurement_target": "Leishmania panamensis",
    "log10 EC50": 1.26
  }
]

###

test system: A498; experiment: Growth inhibition of human A498 cells at 10 uM incubated for 48 hrs by sulforhodamine B assay; assay type: functional, cell-based
Active and inactive are the calls of the source. The calls are words filed in the database; no cut-off is given here.
Labels: active, inactive

[
  {
    "molecule": "COc1cc(C(=O)/C=C/c2cccc(Nc3ccnc4cc(Cl)ccc34)c2)cc(OC)c1OC",
    "measurement_target": "A498",
    "discrete_label": "active"
  },
  {
    "molecule": "Clc1ccc(C2=NN(c3ccc(Cl)cc3)C(c3cccc(Nc4ccnc5cc(Cl)ccc45)c3)C2)cc1 (stereo not given)",
    "measurement_target": "A498",
    "discrete_label": "inactive"
  },
  {
    "molecule": "COc1ccc(C(=O)/C=C/c2cccc(Nc3ccnc4cc(Cl)ccc34)c2)cc1",
    "measurement_target": "A498",
    "discrete_label": "active"
  },
  {
    "molecule": "O=CN1N=C(c2ccc(Cl)cc2)CC1c1cccc(Nc2ccnc3cc(Cl)ccc23)c1 (stereo not given)",
    "measurement_target": "A498",
    "discrete_label": "active"
  },
  {
    "molecule": "COc1cc(C2=NN(c3ccc(Cl)cc3)C(c3cccc(Nc4ccnc5cc(Cl)ccc45)c3)C2)cc(OC)c1OC (stereo not given)",
    "measurement_target": "A498",
    "discrete_label": "inactive"
  },
  {
    "molecule": "COc1ccc(C2=NN(c3ccc(Cl)cc3)C(c3cccc(Nc4ccnc5cc(Cl)ccc45)c3)C2)cc1 (stereo not given)",
    "measurement_target": "A498",
    "discrete_label": "inactive"
  },
  {
    "molecule": "Clc1ccc(C2=NN(c3cc(Cl)cc(Cl)c3)C(c3cccc(Nc4ccnc5cc(Cl)ccc45)c3)C2)cc1 (stereo not given)",
    "measurement_target": "A498",
    "discrete_label": "inactive"
  },
  {
    "molecule": "COc1ccc(C2=NN(C=O)C(c3cccc(Nc4ccnc5cc(Cl)ccc45)c3)C2)cc1 (stereo not given)",
    "measurement_target": "A498",
    "discrete_label": "active"
  },
  {
    "molecule": "Clc1ccc(C2=NN(c3ccccc3)C(c3cccc(Nc4ccnc5cc(Cl)ccc45)c3)C2)cc1 (stereo not given)",
    "measurement_target": "A498",
    "discrete_label": "inactive"
  },
  {
    "molecule": "COc1ccc(C2=NN(c3ccccc3)C(c3cccc(Nc4ccnc5cc(Cl)ccc45)c3)C2)cc1 (stereo not given)",
    "measurement_target": "A498",
    "discrete_label": "inactive"
  }
]
